Recorded measurements of TGI, one per entry
- Test system: UACC-62 melanoma
- procedure_details: NCI tumour cell line growth inhibition, 48 h
Record the value in µM, omitting the unit from your answer.

{"compound": "COc1cc2c3c(n(CCCn4ccnc4)c(=O)c2cc1OC)-c1ccccc1C3=O", "measured_target": "UACC-62 melanoma", "TGI, µM": 0.0906}

Reported TGI, compound CCOC(=O)c1c(-c2ccc(Cl)cc2)c(C#N)c(=S)n(C2OC(CO)C(O)C(O)C2O)c1-c1ccccc1 (stereo not given) : ____
38.2

----------
- System: SW-620 colon
- procedure_details: NCI tumour cell line growth inhibition, 48 h
readout_kind: TGI

What is its TGI for SW-620 colon? Entry: "O=c1c2cc([N+](=O)[O-])cnc2sn1-c1ccc(Oc2ccccc2)cc1"
> 100 µM

What is its TGI for SW-620 colon? Entry: "Nc1ccccc1C(=O)NNC(=O)c1ccccc1N"
> 100 µM

What is its TGI for SW-620 colon? Entry: "CCC/C(Cl)=N\OC(=O)Nc1ccc(Br)cc1"
5.52 µM

What is its TGI for SW-620 colon? Entry: "Cc1ccc(S(=O)(=O)Oc2coc(CO)cc2=O)cc1"
42 µM

What is its TGI for SW-620 colon? Entry: "O=C(CSc1nc2sc3c(c2c(=O)n1-c1ccccc1)CCCCC3)N/N=C/c1ccc(F)cc1"
33.6 µM

What is its TGI for SW-620 colon? Entry: "CN=C1Nc2ccccc2C(=S)N2CSC[C@@H]12"
> 100 µM

What is its TGI for SW-620 colon? Entry: "C=C1[C@H](OCC(C)C)[C@@H](OCC(C)C)[C@@H](O)C(C)(C)/C=C/[C@H](C)C(=O)[C@@]2(O)C[C@H](C)[C@H](O)[C@@H]2[C@H]1OCC(C)C"
> 7.5 µM

What is its TGI for SW-620 colon? Entry: "C=C1C(=O)O[C@H]2[C@H]1CC/C(COC(=O)N[C@@H](Cc1c[nH]c3ccccc13)C(=O)OC)=C\CC[C@@]1(C)O[C@@H]21"
3.67 µM

What is its TGI for SW-620 colon? Entry: "CN1CCC23c4ccccc4NC1C21CCN(C)C3Nc2ccccc21"
> 375 µM

What is its TGI for SW-620 colon? Entry: "CCSc1nc(=S)[nH]c2[nH]ncc12"
> 100 µM

What is its TGI for SW-620 colon? Entry: "CC(=O)[CH-]C(C)=O.CC(=O)[CH-]C(C)=O.CC(=O)[CH-]C(C)=O.[Cl-].[Hf+4]"
> 100 µM

What is its TGI for SW-620 colon? Entry: "O[C@H]1[C@H]2[C@H](O)CCCN2C[C@H]1O"
> 100 µM

What is its TGI for SW-620 colon? Entry: CC(=O)C1=C(O)C2(O)C(=O)c3c(c(C)c4ccc(C)c(O)c4c3O)CC2C(N)C1=O (stereo not given)
23.6 µM

----------
Recorded measurements of TGI, one per entry
- Test system: SN12C renal
- procedure_details: NCI tumour cell line growth inhibition, 48 h

Study these solved cases before continuing.
{"compound": "C=C1C(C2(C)C=CC(=O)OC3(C)COC(=O)CC32)C(OC=O)C(OC(=O)C(O)C(C)CC)C2(C)C(c3ccoc3)CC(OC(C)=O)C12O (stereo not drawn)", "readout_kind": "TGI", "reported": "> 100 µM"}
{"compound": "COc1ccc(-c2cc(=O)c3c(O)c(OC)c(O)cc3o2)cc1O", "readout_kind": "TGI", "reported": "> 100 µM"}
{"compound": "Fc1ccc(Nc2ccc3cc(OCCCN4CCOCC4)ccc3n2)cc1F", "readout_kind": "TGI", "reported": "> 100 µM"}
{"compound": "COc1cc2c(cc1OCCCCCN1CCN(c3cc(=O)oc4c(C)c(OC)ccc34)CC1)N=C[C@@H]1CCCN1C2=O", "readout_kind": "TGI", "reported": "0.0699 µM"}
{"compound": "O=C(/C=C\\c1cccc2ccccc12)c1ccc(Br)cc1", "readout_kind": "TGI", "reported": "> 100 µM"}

Reported TGI, compound "Nc1c(C(=O)Nc2cccc3ccccc23)sc2nc3c(cc12)CCCCC3" : ____
> 50 µM

Reported TGI, compound "NC(=S)Nc1nnc(-c2ccc(-c3nnc(NC(N)=S)o3)cc2)o1" : ____
> 100 µM

Reported TGI, compound "COc1ccc2cc(CNCCCN3CCN(CCCNCc4ccc5cc(OC)ccc5c4)CC3)ccc2c1" : ____
3.11 µM

Reported TGI, compound Cc1ncc([N+](=O)[O-])n1CC(O)Cn1cnc([N+](=O)[O-])n1 (stereo not drawn) : ____
> 100 µM

Reported TGI, compound "CN1CCN(Cc2ccc(NC(=O)c3[nH]ncc3Nc3ccnc4ccsc34)cc2)CC1" : ____
14.4 µM

Reported TGI, compound "Cc1c(N(C(=O)c2cc(-c3cc(Cl)ccc3C(=O)N3Cc4ccccc4C[C@H]3CN3CCOCC3)n(C)c2C)c2ccc(O)cc2)cc(C#N)n1C" : ____
> 100 µM

Reported TGI, compound "COC1(OC)C[C@H](C)[C@@]23O[C@]24c2cc(O)c5c(c2N[C@H]3C#C/C=C\C#C[C@]14O)C(=O)c1ccccc1C5=O" : ____
0.00979 µM

Reported TGI, compound CC1=C([Se]CC(OC(=O)[C@@H](CSSC(C)(C)C)NC(=O)C(C)(C)C)C(=O)NCCCCCC(=O)OCc2ccccc2)C(=O)c2ccccc2C1=O (stereo partly drawn) : ____
3.89 µM

Reported TGI, compound "Cc1cc(Nc2ncc(Cl)c(Nc3ccccc3S(=O)(=O)C(C)C)n2)c(OC(C)C)cc1C1CCNCC1" : ____
3.29 µM
